Target: human TLR7 (Homo sapiens, UniProt Q9NYK1)
Sequence (Q9NYK1 27-1049): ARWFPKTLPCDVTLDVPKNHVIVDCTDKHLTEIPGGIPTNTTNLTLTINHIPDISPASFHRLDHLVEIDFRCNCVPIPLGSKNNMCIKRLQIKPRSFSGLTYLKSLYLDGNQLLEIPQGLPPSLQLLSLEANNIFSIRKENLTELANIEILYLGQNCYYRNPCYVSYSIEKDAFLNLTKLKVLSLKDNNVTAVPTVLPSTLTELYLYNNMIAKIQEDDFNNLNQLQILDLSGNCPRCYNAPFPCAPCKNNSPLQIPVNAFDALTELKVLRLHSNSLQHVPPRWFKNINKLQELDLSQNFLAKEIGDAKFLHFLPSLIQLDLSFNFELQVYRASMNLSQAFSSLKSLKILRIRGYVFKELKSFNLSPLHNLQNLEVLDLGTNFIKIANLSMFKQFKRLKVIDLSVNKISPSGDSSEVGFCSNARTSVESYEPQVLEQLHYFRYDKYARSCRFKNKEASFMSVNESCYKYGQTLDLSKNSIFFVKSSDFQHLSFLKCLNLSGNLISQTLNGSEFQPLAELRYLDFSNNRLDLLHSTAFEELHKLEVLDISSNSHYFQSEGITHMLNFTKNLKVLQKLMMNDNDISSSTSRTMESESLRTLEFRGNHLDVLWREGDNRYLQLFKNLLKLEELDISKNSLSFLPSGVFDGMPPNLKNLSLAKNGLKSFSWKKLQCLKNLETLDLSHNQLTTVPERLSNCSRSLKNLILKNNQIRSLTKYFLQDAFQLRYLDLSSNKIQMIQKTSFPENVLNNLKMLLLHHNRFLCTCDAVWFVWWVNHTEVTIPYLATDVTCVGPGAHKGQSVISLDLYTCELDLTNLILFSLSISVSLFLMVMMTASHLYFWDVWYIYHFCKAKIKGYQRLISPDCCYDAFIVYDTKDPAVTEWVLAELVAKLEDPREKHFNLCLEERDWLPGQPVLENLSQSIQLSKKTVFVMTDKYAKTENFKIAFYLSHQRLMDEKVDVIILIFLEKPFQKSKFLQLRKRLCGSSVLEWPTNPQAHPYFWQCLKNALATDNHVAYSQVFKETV
Assay: Human TLR7 agonist activity assay (HEK-Blue TLR7 SEAP reporter)
Conditions: HEK-Blue TLR7 cells, 18 h treatment, average where assay was performed multiple times, read-out: hTLR7 Agonism EC50
ASSAY METRIC: pEC50
Field pEC50 (float): negative decimal logarithm of the concentration in molar.

# pEC50 (molecule: "COc1cc(C(=O)NC2CCN(C)CC2)ccc1Cn1ncc2nc(N)nc(NCc3cc(C)on3)c21" ) is 5.91

The value of pEC50 measured for the molecule "COc1cc(C(=O)N2CCN(C)CC2)ccc1Cn1ncc2nc(N)nc(NCc3cc(C)on3)c21" turned out to be 6.84

---
Lab note: measured pEC50 of "COc1cc(C(=O)N2CCNC(=O)C2)ccc1Cn1ncc2nc(N)nc(NCc3cc(C)on3)c21" was 5.66

# molecule "CCC[C@@H](CCO)Nc1nc(N)nc2cnn(Cc3ccc(C(=O)NCC4CCNCC4)cc3OC)c12" ; its pEC50 = 5.89

So, "CCCCNc1nc(N)nc2cnn(Cc3ccc(C(=O)N4CCN(C)CC4)cc3OC)c12" ? Its pEC50 was 7.68

// recorded pEC50 for "CCCCNc1nc(N)nc2c(C)nn(Cc3ccc(C(=O)N4CCN(CCO)CC4)cc3OC)c12" : 6.39

Lab note: "CCCCNc1nc(N)nc2c(C)nn(Cc3ccc(C(=O)N4CCNC(=O)C4)cc3OC)c12" gave pEC50 of 6.01

The reported value for "CCCCNc1nc(N)nc2cnn(Cc3ccc(C(=O)NC4CCC4)cc3OC)c12" in terms of pEC50 is 5.78

Looking up "CCC[C@@H](CCO)Nc1nc(N)nc2c(F)nn(Cc3ccc(C(=O)NC4CCN(C)CC4)cc3OC)c12" , I see its pEC50 listed as 6.75

Noted for "CCCCNc1nc(N)nc2cnn(Cc3ccc(C(=O)N4CCN(C(C)=O)CC4)cc3OC)c12" : its pEC50 reads 6.58

Data point: "CCCCNc1nc(N)nc2cnn(Cc3ccc(C(=O)N4CCC(CO)CC4)cc3OC)c12" ; pEC50 = 6.81

Note to self: pEC50 recorded for "CCCCNc1nc(N)nc2cnn(Cc3ccc(C(=O)NC4CCN(C)CC4)cc3OC3CC3)c12" was 6.30

###

Items are presented alongside their recorded EC50.
Target: human TLR7 (Homo sapiens, UniProt Q9NYK1)
Assay: Human TLR7 agonist activity assay (HEK-Blue TLR7 SEAP reporter)
Settings: HEK-Blue TLR7 cells, 18 h treatment, average where assay was performed multiple times, read-out: hTLR7 Agonism EC50
Supply the numeric figure in nM, leaving out any unit text.

Below, each entry is followed by its recorded EC50 result.
EC50 for CCCCNc1nc(N)nc2c(C)nn(Cc3ccc(C(=O)NC4CCN(C)CC4)cc3OC)c12 [Compound 117] is 467

Short answer for CCCCNc1nc(N)nc2cnn(Cc3ccc(C(=O)N4CCNCC4)cc3OC)c12 [Compound 104] : EC50 was 40.7

Reported EC50 of CCCCNc1nc(N)nc2cnn(Cc3ccc(C(=O)N4CCC(N(C)C)CC4)cc3OC)c12 [Compound 109] : 29.7

The molecule identified as CCCCNc1nc(N)nc2cnn(Cc3ccc(C(=O)N4CCCN(C)CC4)cc3OC)c12 [Compound 110] registered its EC50 at 16.3

So for CCCCNc1nc(N)nc2cnn(Cc3ccc(C(=O)N4CCN(CCO)CC4)cc3OC)c12 [Compound 105] , the logged EC50 turned out to be 32.6

Continuing:
GET /value?item= CCCCNc1nc(N)nc2cnn(Cc3ccc(C(=O)N4CCN(CCO)CC4)cc3OC3CC3)c12 [Compound 122] &field=EC50 returns 1190

# EC50 of CCCCNc1nc(N)nc2cnn(Cc3ccc(C(=O)NCCN(C)C)cc3OC)c12 [Compound 111] = 78

// EC50 value for CCC[C@@H](CCO)Nc1nc(N)nc2cnn(Cc3ccc(C(=O)NC4CCN(C)CC4)cc3OC)c12 [Compound 125] : 747

Record CCCCNc1nc(N)nc2cnn(Cc3ccc(C(=O)N4CCN(CC(F)(F)F)CC4)cc3OC)c12 [Compound 108] , field EC50: 602

Quick note, EC50 for CCCCNc1nc(N)nc2cnn(Cc3ccc(C(=O)NC4CCN(C)CC4)cc3OC)c12 [Compound 114] landed at 68.9

Please fill in: EC50 reported for CCCCNc1nc(N)nc2cnn(Cc3ccc(C(=O)N4CCNC(=O)C4)cc3OC)c12 [Compound 115] = 384

###

Target: UniProt:Q9NYK1
Assay: Human TLR7 agonist activity assay (HEK-Blue TLR7 SEAP reporter)
Conditions: HEK-Blue TLR7 cells, 18 h treatment, average where assay was performed multiple times, read-out: hTLR7 Agonism EC50
ASSAY METRIC: EC50 (µM)
Give just the number in µM; leave the unit off.

Measured EC50 for this entry "CCCCNc1nc(N)nc2cnn(Cc3ccc(C(=O)N4CCN(CCO)CC4)cc3OC(F)F)c12" on UniProt:Q9NYK1: 1.2

Observed EC50, UniProt:Q9NYK1, "CCCCNc1nc(N)nc2cnn(Cc3ccc(C(=O)N4CCC(O)CC4)cc3OC)c12" : 0.111

Consider the record given below.
Assay UniProt:Q9NYK1, sample "CCC[C@@H](CCO)Nc1nc(N)nc2cnn(Cc3ccc(C(=O)N4CCN(CCO)CC4)cc3OC)c12" , EC50 read: 0.115
